- Tested target: Human M4 (Homo sapiens)
- Construct: Human or rat M4 cDNA, along with the chimeric G protein Gqi5, were transfected into Chinese hamster ovary (CHO-K1) cells; expressed in transfected cells; host or cells: CHO-K1 (Chinese hamster ovary, ATCC), stably expressing M4 and Gqi5
- Sequence (P08173 whole entry): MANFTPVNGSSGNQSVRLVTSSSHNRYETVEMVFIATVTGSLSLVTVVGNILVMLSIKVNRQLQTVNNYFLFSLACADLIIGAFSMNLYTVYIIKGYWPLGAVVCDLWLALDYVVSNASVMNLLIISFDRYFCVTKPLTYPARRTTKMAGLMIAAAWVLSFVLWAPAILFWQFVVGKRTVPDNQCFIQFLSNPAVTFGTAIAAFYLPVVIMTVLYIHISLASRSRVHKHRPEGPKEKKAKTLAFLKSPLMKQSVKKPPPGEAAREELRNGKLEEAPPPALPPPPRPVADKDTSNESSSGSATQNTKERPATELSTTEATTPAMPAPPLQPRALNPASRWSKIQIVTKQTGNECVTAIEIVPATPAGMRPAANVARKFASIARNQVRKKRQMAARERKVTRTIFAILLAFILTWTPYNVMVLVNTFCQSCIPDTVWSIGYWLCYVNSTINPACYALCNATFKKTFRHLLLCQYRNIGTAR
- Assay text: mAChR M4 cell-based functional assay (calcium flux, antagonist mode)
- Test parameters: Human M4; % ACh maximum at 30 μM
Emin (% ACh maximum at 30 μM) strictly under 4% means t; at 4% or over means f.

{"Compound": "Cn1cccc(-c2ccc(N[C@H]3C[C@@H]4CN(CC5CCOCC5)C[C@@H]4C3)nn2)c1=O [A4]", "Label value": "f"}
{"Compound": "Cn1cc(-c2ccc(N[C@H]3C[C@@H]4CN(CCC(C)(C)C)C[C@@H]4C3)nn2)ccc1=O [A13]", "Label value": "t"}
{"Compound": "O=c1cc(-c2ccc(N[C@H]3C[C@@H]4CN(CC5CCOCC5)C[C@@H]4C3)nn2)ccn1C(F)F [A6]", "Label value": "f"}

[Q] Bench note: check whether Cn1cc(-c2ccc(N[C@H]3C[C@@H]4CN(CC5CCCCC5)C[C@@H]4C3)nn2)ccc1=O [A11] shows Emin (% ACh maximum at 30 μM) below 4%
[A] t

[Q] # check: Emin (% ACh maximum at 30 μM) < 4% for [2H]C([2H])(C1CCOCC1)N1C[C@H]2C[C@H](Nc3ccc(-c4ccn(C)c(=O)c4)nn3)C[C@H]2C1 [A1]
[A] f

[Q] Hi there! Is Emin (% ACh maximum at 30 μM) for Cn1cc(-c2ccc(N[C@H]3C[C@@H]4CN(CC5CCOCC5)C[C@@H]4C3)nn2)cnc1=O [A7] below 4%, do you know?
[A] f

[Q] Hello, I'm reviewing records and need to know if Emin (% ACh maximum at 30 μM) of Cc1cc(-c2ccc(N[C@H]3C[C@@H]4CN(CC5CCOCC5)C[C@@H]4C3)nn2)c(=O)[nH]n1 [A8] is below 4%. Could you check?
[A] f

[Q] Strictly below 4% in Emin (% ACh maximum at 30 μM)? [2H]C([2H])(C1CCOCC1)N1C[C@H]2C[C@H](Nc3ccc(-c4ccc(=O)n(CC5CC5)c4)nn3)C[C@H]2C1 [A14]
[A] t

[Q] For this compound, is Emin (% ACh maximum at 30 μM) lower than 4%? Cn1cc(-c2ccc(N[C@H]3C[C@@H]4CN(CC5CCOCC5)C[C@@H]4C3)nn2)cc(F)c1=O [A17]
[A] t

[Q] Is Emin (% ACh maximum at 30 μM) strictly under 4% for the entry Cn1cc(-c2ccc(N[C@H]3C[C@@H]4CN(Cc5ccccn5)C[C@@H]4C3)nn2)ccc1=O [A12] ?
[A] f

[Q] Please state whether Emin (% ACh maximum at 30 μM) is below 4% for Cn1cccc(-c2cnc(N[C@H]3C[C@@H]4CN(CC5CCOCC5)C[C@@H]4C3)nc2)c1=O [B1]
[A] f
